system: MV-4-11 cells; test: In vitro cell proliferation assay, MV-4-11 (CellTiter-Glo); assay type: cell-based; conditions: MV4-11; human acute leukemia cells bearing FLT3-ITD mutation, 72 h
I'd be grateful if you could share measured pIC50 for these entries.
// field semantics: pIC50 = negative decimal log of concentration (mol/L)

Ask: Endpoint output: pIC50 of CN1CCN(c2ccc(C(=O)Nc3n[nH]c4cc(OC5CCN(Cc6ccccc6)CC5)ccc34)cc2)CC1 . Value?
Reply: 6.79

Ask: Endpoint output: pIC50 of CN1CCN(c2ccc(C(=O)Nc3n[nH]c4cc(OCCOc5ccccc5)ccc34)cc2)CC1 . Value?
Reply: 6.93

Ask: Endpoint output: pIC50 of CN1CCN(c2ccc(C(=O)Nc3n[nH]c4cc(Oc5cccc(F)c5)ccc34)cc2)CC1 . Value?
Reply: 6.01

Ask: Endpoint output: pIC50 of CN1CCN(c2ccc(C(=O)Nc3n[nH]c4cc(OCC#Cc5ccccc5)ccc34)cc2)CC1 . Value?
Reply: 6.96

Ask: Endpoint output: pIC50 of CN1CCN(c2ccc(C(=O)Nc3n[nH]c4cc(OCc5cccc(Oc6ccccc6)c5)ccc34)cc2)CC1 . Value?
Reply: 6.29

Ask: Endpoint output: pIC50 of CN1CCN(c2ccc(C(=O)Nc3n[nH]c4cc(OCCOCc5ccccc5)ccc34)c(N3CCN(C)CC3)c2)CC1 . Value?
Reply: 6.93

Ask: Endpoint output: pIC50 of CN1CCN(c2ccc(C(=O)Nc3n[nH]c4cc(Oc5ccc(Oc6ccccc6)cc5)ccc34)cc2)CC1 . Value?
Reply: 5.56
